# STUDY_TARGET: Tryptase beta-1 (Homo sapiens, UniProt Q15661)
# Sequence (Q15661 whole entry): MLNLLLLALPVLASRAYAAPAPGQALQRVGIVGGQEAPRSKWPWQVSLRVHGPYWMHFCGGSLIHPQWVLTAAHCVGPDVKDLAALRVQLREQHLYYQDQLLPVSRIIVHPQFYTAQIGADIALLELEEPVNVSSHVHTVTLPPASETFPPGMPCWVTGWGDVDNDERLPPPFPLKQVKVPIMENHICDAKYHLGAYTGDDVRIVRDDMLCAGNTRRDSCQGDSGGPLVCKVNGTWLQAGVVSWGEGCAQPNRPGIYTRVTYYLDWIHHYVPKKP
pIC50: −log10 of the molar value.
Could you label it t if measured pIC50 is 7 or higher, and f otherwise?

>  <MOLECULE_SMILES>
NCc1ccc(N2CCC(NC(=O)C3CCN(S(=O)(=O)c4ccc5ccccc5c4)CC3)CC2)cc1

>  <CLASS_LABEL>
f

$$$$
>  <MOLECULE_SMILES>
Cc1nc2ccc(S(=O)(=O)NCCNCCCc3ccc(CN)cc3)cc2s1

>  <CLASS_LABEL>
f

$$$$
>  <MOLECULE_SMILES>
NCc1ccc(N2CCC(CNCCNS(=O)(=O)c3ccc4ccccc4c3)CC2)cc1

>  <CLASS_LABEL>
f

$$$$
>  <MOLECULE_SMILES>
NCc1ccc(CCCNCCNS(=O)(=O)c2ccccc2)cc1

>  <CLASS_LABEL>
f

$$$$
>  <MOLECULE_SMILES>
N=C(N)c1ccc2nc(Cc3nc4ccc(C(=N)N)cc4[nH]3)[nH]c2c1

>  <CLASS_LABEL>
t

$$$$
